Tested on: PTPN2
assayText: HiBiT-Degradation B16F10.4 PTPN2
Format: cell-based
conditionNotes: B16F10.4 cells, 24.0 hours
Each entry below carries its recorded DC50.

Cn1c(=O)n(C2CCC(=O)NC2=O)c2ccc(C3CCN(C(=O)C(=O)Nc4ccc5c(F)c(N6CC(=O)NS6(=O)=O)c(O)cc5c4)CC3)cc21 (stereo not drawn) | 10 to 50 nM
Cn1c(=O)n(C2CCC(=O)NC2=O)c2ccc(C3CCN(CCNC(=O)c4ccc5c(F)c(N6CC(=O)NS6(=O)=O)c(O)cc5c4)CC3)cc21 (stereo not drawn) | 50 to 200 nM

**Query** I am curious: what DC50 value has been reported for O=C1CCC(N2C(=O)c3cccc(NCc4cn(CCC(=O)Nc5ccc6c(Cl)c(N7CC(=O)NS7(=O)=O)c(O)cc6c5)nn4)c3C2=O)C(=O)N1 (stereo not drawn) ?
**Result** ≥ 1000 nM

----------
targetSystem: PTPN2 (Homo sapiens)
Construct: expressed in transfected cells; host or cells: 293T (293T.109 HiBiT-PTPN2 line; parental 293T WT from ATCC)
Sequence (P17706 whole entry, species assumed): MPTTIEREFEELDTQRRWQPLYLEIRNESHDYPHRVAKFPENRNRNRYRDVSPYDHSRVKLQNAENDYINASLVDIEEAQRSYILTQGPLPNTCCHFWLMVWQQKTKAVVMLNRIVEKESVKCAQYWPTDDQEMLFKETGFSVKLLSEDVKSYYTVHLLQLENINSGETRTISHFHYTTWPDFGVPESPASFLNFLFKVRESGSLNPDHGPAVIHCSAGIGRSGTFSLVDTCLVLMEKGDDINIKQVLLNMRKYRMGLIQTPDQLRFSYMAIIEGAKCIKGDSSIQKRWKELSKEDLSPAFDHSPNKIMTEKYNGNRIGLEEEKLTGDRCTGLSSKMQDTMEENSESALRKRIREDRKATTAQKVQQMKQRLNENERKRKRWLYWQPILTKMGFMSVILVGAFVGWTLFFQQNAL
assayText: HiBiT-Degradation 293T.109 PTPN2 (Nano-Glo HiBiT Lytic Assay)
Type: cell-based
conditionNotes: 293T.109 (HiBiT-PTPN2) cells, 24.0 hours
Procedure: Dulbecco's modified Eagle medium (DMEM) without phenol red and fetal bovine serum (FBS) were purchased from Gibco (Grand Island, NY, USA). Nano-Glo® HiBIT Lytic Assay System was purchased from Promega (Madison, WI, USA). […] PTPN2 degradation was determined based on quantification of luminescent signal using Nano-Glo® HiBIT Lytic Assay kit. […] Luminescence was acquired on EnVision™ Multilabel Reader (PerkinElmer, Santa Clara, CA, USA).
quantity: DC50

Known results for compounds:
Cn1c(=O)n(C2CCC(=O)NC2=O)c2cccc(C3CCN(CC(=O)NCCOc4ccc5cc(O)c(N6CC(=O)NS6(=O)=O)c(F)c5c4)CC3)c21 (stereo not drawn) [Example 33] | 200 to 1000 nM
O=C1CCC(N2Cc3c(NCc4cn(C5CN(C(=O)Nc6ccc7c(F)c(N8CC(=O)NS8(=O)=O)c(O)cc7c6)C5)nn4)cccc3C2=O)C(=O)N1 (stereo not drawn) [Example 57] | 200 to 1000 nM
Cn1c(=O)n(C2CCC(=O)NC2=O)c2cccc(OC3CCN(CC(=O)NCCOc4ccc5cc(O)c(N6CC(=O)NS6(=O)=O)c(F)c5c4)CC3)c21 (stereo not drawn) [Example 9] | 50 to 200 nM
Cn1nc([C@H]2CCC(=O)NC2=O)c2ccc(N3CCC(CC(=O)Nc4ccc5c(F)c(N6CC(=O)NS6(=O)=O)c(O)cc5c4)CC3)cc21 [Example 164] | 10 to 50 nM
Cn1nc(C2CCC(=O)NC2=O)c2ccc(-c3ccc(CC(=O)Nc4ccc5c(F)c(N6CC(=O)NS6(=O)=O)c(O)cc5c4)cc3)cc21 (stereo not drawn) [Example 177] | 10 to 50 nM

**Query** Query: DC50; subject: Cn1nc(C2CCC(=O)NC2=O)c2ccc(N3CCC(O)(CC(=O)Nc4ccc5c(F)c(N6CC(=O)NS6(=O)=O)c(O)cc5c4)CC3)cc21 (stereo not drawn) [Example 83]
**Result** < 10 nM

**Query** Returns the measured DC50 for the input compound. Input: O=C(C=Cc1ccc2cc(O)c(N3CC(=O)NS3(=O)=O)c(F)c2c1)NC1CCN(C(=O)COc2cccc3c2CN(C2CCC(=O)NC2=O)C3=O)CC1 (stereo not drawn) [Example 11]
**Result** 200 to 1000 nM

**Query** Which DC50 is reported for this compound? O=C1CCC(N2C(=O)c3cccc4c(C5CCN(CC(=O)N6CC(Oc7ccc8cc(O)c(N9CC(=O)NS9(=O)=O)c(F)c8c7)C6)CC5)ccc2c34)C(=O)N1 (stereo not drawn) [Example 158]
**Result** 10 to 50 nM

**Query** Consider the compound shown here: O=C1CCC(N2Cc3c(NCC(=O)N4CC(C(=O)NCCOc5ccc6cc(O)c(N7CC(=O)NS7(=O)=O)c(F)c6c5)C4)cccc3C2=O)C(=O)N1 (stereo not drawn) [Example 36] What is its recorded DC50?
**Result** 200 to 1000 nM

**Query** What DC50 value was documented for this compound, Cn1c(=O)n(C2CCC(=O)NC2=O)c2ccc(C3CCN(CCCC(=O)Nc4ccc5c(F)c(N6CC(=O)NS6(=O)=O)c(O)cc5c4)CC3)cc21 (stereo not drawn) [Example 70] ?
**Result** ≥ 1000 nM

**Query** Data request, read-out DC50, for CN(CCOc1ccc2cc(O)c(N3CC(=O)NS3(=O)=O)c(F)c2c1)C(=O)CN1CCC(c2ccc3c(c2)n(C)c(=O)n3C2CCC(=O)NC2=O)CC1 (stereo not drawn) [Example 97]
**Result** 50 to 200 nM

**Query** Which value of DC50 has been reported for Cn1c(=O)n(C2CCC(=O)NC2=O)c2ccc(C3CCN(CCn4cc(-c5ccc6cc(O)c(N7CC(=O)NS7(=O)=O)c(F)c6c5)cn4)CC3)cc21 (stereo not drawn) [Example 135] in the records?
**Result** 50 to 200 nM
